assay_procedure: in vivo
condition_summary: male, ICR, mouse, plasma, po, 5 mg/kg

| molecule | Tmax [min] |
| --- | --- |
| Cc1ccncc1-c1ccc2nc(NC(=O)[C@@H]3C[C@@H]3F)sc2c1 [Example 4] | 30 |
| Cc1c(F)cncc1-c1ccc2nc(NC(=O)[C@@H]3C[C@@H]3F)sc2c1 [Example 8] | 60 |

###

assay_procedure: in vivo
condition_summary: male, ICR, mouse, brain, po, 5 mg/kg
Entries and their AUC(0-inf) values follow.
metric_name: AUC(0-inf)

| item_smiles | metric_name | observed_measurement |
| --- | --- | --- |
| Cc1ccncc1-c1ccc2nc(NC(=O)C3CC3)sc2c1 | AUC(0-inf) | 1980 ng·h/mL |
| Cc1ccncc1-c1ccc2nc(NC(=O)[C@@H]3C[C@@H]3F)sc2c1 | AUC(0-inf) | 4140 ng·h/mL |
| Cc1ccncc1-c1ccc2sc(NC(=O)[C@@H]3C[C@@H]3F)nc2c1 | AUC(0-inf) | 3950 ng·h/mL |

###

assay_procedure: in vivo
condition_summary: male, ICR, mouse, brain/plasma, po, 5 mg/kg

| item_smiles | Kp |
| --- | --- |
| Cc1ccncc1-c1ccc2sc(NC(=O)[C@@H]3C[C@@H]3F)nc2c1 | 0.5 |

###

system_name: hERG (Homo sapiens (Human), UniProt Q12809)
Sequence (Q12809 whole entry): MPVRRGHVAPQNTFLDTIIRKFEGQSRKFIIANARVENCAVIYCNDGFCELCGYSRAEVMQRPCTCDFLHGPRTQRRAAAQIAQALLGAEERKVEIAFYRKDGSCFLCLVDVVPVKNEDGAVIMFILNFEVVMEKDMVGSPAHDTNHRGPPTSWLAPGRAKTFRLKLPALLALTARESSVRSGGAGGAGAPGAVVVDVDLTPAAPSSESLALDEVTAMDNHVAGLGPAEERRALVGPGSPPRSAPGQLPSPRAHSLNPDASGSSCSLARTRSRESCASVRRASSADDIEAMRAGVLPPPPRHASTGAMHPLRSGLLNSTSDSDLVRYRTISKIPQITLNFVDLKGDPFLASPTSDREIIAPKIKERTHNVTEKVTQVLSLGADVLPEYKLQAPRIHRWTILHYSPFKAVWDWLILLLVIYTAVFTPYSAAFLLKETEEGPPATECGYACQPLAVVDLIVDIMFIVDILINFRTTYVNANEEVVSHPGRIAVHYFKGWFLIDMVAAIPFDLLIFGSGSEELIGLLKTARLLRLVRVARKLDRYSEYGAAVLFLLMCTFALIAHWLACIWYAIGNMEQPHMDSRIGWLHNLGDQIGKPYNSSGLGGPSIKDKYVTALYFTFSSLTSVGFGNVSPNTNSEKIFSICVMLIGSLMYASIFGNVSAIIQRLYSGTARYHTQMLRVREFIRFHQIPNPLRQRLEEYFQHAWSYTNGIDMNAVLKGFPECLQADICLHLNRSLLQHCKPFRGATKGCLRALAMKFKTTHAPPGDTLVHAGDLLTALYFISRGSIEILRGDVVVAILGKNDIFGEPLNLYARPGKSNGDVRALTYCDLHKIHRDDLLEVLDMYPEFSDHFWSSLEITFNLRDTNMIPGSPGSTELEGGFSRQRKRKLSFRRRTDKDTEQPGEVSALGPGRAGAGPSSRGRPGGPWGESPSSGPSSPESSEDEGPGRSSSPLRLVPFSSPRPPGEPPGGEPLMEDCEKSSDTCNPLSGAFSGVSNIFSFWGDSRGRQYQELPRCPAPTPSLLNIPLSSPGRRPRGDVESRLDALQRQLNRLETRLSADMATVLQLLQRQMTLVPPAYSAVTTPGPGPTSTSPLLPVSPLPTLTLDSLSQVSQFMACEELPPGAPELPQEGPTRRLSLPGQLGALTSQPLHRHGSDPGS
assay_procedure: hERG activity

| item_smiles | inhibition at 10 µM, % |
| --- | --- |
| Cc1c(F)cncc1-c1ccc2nc(NC(=O)[C@@H]3C[C@@H]3F)sc2c1 | 12.6 |
